Tested on: ATP;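 note: ATP exposure 15 min at 22 °C before imaging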
TEST DETAILS: switch fluorescence ratio, 500 uM ATP over buffer (Cy3 cluster intensity, sum of 5 cycles each) (fold (ratio)); higher = stronger signal-on switching upon ATP binding; sequences stand for … in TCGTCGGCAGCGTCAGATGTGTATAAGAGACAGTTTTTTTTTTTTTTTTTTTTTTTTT…TC
MEASUREMENT PARAMETERS: aptamer strand: ATP DNA aptamer (quencher-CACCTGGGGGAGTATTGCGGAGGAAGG + anchor), 100 nM annealed; ATP concentration: 500 uM
MEASURE: switch fluorescence ratio
One number for each entry.

For each of the sequences below, state switch fluorescence ratio.
1. TTACACGTTC
2. GGGGGATTAT
3. AAAAAAATCC

Return:
1: 1.03; 2: 0.992; 3: 1.01
